assay: clinical; conditions: human, plasma, po, absolute bioavailability, oral administration; non-elderly subjects
reportedMetric: bioavailability (%)
Field: numeric (%). Do not append units.

// bioavailability lookup, key: Cl.Oc1ccc2c3c1OC1[C@@H](O)CC[C@@]4(O)[C@@H](C2)N(CC2CCC2)CC[C@]314 (stereo partly shown)
11
